target: T1, K280-ac protein fragment (human); test: ELISA on K280-ac coated at 250 ng/well, HRP anti-human IgG
T1 construct: also called mAC
T1 peptide: VQIINK(Ac)KLDLSN
Ends that are not written are not given here.
Absorbance at 450nm at 0.12ug/well values for the binders below.
Respond numerically, and do not add a unit to the figure.

[[record]]
binder = "v12 (antibody, V domains shown, also called Y01h01v12; ADEL-Y01h v12 antibody) VH: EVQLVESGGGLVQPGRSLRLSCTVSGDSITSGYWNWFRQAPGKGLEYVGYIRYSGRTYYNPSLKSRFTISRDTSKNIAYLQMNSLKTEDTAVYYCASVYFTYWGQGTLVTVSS VL: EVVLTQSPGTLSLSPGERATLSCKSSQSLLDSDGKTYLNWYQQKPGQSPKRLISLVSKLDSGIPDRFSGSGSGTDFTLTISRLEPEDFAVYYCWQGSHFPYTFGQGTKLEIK"
test_readout = "Absorbance at 450nm at 0.12ug/well"
experimental_result = 1.05

[[record]]
binder = "ADEL-Y01h v08 antibody (antibody, V domains shown, Humanized antibody; It was detected with anti-human IgG; also called Y01h01v08) VH: EVTLKESGPTLVKPTQTLTLTCTVSGDSITSGYWNWIRQPPGKALEYLAYIRYSGRTYYNPSLKSRLTITRDTSKNQVVLTMTNMDPVDTATYYCASVYFTYWGQGTLVTVSS VL: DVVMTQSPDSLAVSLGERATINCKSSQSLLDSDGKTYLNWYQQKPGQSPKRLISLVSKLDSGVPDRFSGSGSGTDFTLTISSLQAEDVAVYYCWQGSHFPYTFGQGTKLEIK"
test_readout = "Absorbance at 450nm at 0.12ug/well"
experimental_result = 0.0745

[[record]]
binder = "ADEL-Y01h v05 antibody (antibody, V domains shown, Humanized antibody; It was detected with anti-human IgG; also called Y01h01v05) VH: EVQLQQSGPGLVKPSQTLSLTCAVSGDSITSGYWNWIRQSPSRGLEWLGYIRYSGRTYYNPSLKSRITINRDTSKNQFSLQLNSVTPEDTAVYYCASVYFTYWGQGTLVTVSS VL: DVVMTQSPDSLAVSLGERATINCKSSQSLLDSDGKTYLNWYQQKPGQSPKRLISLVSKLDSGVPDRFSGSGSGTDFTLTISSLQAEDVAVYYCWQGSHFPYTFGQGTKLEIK"
test_readout = "Absorbance at 450nm at 0.12ug/well"
experimental_result = 0.908


Now examine the next entry.
### Prompt So what does the record say about Absorbance at 450nm at 0.12ug/well for v11 (antibody, V domains shown, also called Y01h01v11; ADEL-Y01h v11 antibody) VH: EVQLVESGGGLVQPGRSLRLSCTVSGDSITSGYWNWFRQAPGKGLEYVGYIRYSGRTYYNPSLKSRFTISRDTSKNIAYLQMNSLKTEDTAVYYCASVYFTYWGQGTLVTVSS VL: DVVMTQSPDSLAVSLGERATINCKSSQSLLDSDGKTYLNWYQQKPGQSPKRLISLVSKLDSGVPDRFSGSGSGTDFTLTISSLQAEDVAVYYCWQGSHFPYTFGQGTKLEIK ?
### Response 0.0345
